EXPERIMENTAL_SYSTEM: Solute carrier organic anion transporter family member 1B3 (Homo sapiens, UniProt Q9NPD5)
Sequence (Q9NPD5 whole entry): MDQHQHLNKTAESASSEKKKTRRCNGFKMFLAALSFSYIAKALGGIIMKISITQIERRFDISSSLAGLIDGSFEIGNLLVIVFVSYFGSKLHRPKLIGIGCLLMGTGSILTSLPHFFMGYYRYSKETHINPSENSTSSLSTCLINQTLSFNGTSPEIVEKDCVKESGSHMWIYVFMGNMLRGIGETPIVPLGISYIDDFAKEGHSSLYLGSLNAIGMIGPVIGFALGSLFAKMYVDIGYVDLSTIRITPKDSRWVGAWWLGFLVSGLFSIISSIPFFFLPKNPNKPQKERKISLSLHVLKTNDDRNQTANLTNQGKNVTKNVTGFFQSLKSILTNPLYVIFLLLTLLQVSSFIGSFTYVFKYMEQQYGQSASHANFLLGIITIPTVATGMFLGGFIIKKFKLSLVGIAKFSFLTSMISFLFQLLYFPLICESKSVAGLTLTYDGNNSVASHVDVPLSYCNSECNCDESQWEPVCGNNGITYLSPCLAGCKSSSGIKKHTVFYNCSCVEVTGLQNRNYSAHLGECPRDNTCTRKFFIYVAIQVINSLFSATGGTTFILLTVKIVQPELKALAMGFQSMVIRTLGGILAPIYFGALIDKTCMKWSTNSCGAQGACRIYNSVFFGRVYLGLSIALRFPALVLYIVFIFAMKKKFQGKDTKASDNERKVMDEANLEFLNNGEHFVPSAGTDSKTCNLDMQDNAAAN
ASSAY_NOTES: Inhibition of human liver OATP1B3 expressed in HEK293 Flp-In cells assessed as reduction in [3H]E17-betaG uptake at 20 uM incubated for 5 mins by scintillation counting
TEST_CONTEXT: hek293, 5 min
READOUT_KIND: INH

Lab note: need INH with Solute carrier organic anion transporter family member 1B3 (Homo sapiens, UniProt Q9NPD5) for entry CCC[C@@]1(CCc2ccccc2)CC(O)=C([C@H](CC)c2cccc(NS(=O)(=O)c3ccc(C(F)(F)F)cn3)c2)C(=O)O1 , please look it up.
109%

Lab note: need INH with Solute carrier organic anion transporter family member 1B3 (Homo sapiens, UniProt Q9NPD5) for entry CC#C[C@]1(O)CC[C@H]2[C@@H]3CCC4=CC(=O)CCC4=C3[C@@H](c3ccc(N(C)C)cc3)C[C@@]21C , please look it up.
80.3%

Lab note: need INH with Solute carrier organic anion transporter family member 1B3 (Homo sapiens, UniProt Q9NPD5) for entry O=c1oc2cc(O)ccc2c2oc3cc(O)ccc3c12 , please look it up.
-21.1%

Lab note: need INH with Solute carrier organic anion transporter family member 1B3 (Homo sapiens, UniProt Q9NPD5) for entry O=C(O)[C@H]1O[C@@H](Oc2cc3oc(-c4ccccc4)cc(=O)c3c(O)c2O)[C@H](O)[C@@H](O)[C@@H]1O , please look it up.
20.9%

Lab note: need INH with Solute carrier organic anion transporter family member 1B3 (Homo sapiens, UniProt Q9NPD5) for entry C[C@@H]1O[C@@H](O[C@H]2[C@H](Oc3cc(O)c4c(c3)O[C@H](c3ccc(O)cc3)CC4=O)O[C@H](CO)[C@@H](O)[C@@H]2O)[C@H](O)[C@H](O)[C@H]1O , please look it up.
37.7%

Lab note: need INH with Solute carrier organic anion transporter family member 1B3 (Homo sapiens, UniProt Q9NPD5) for entry Nc1nc2c(ncn2COCCO)c(=O)[nH]1 , please look it up.
-2%

Lab note: need INH with Solute carrier organic anion transporter family member 1B3 (Homo sapiens, UniProt Q9NPD5) for entry NNC(=O)c1ccncc1 , please look it up.
18.7%

Lab note: need INH with Solute carrier organic anion transporter family member 1B3 (Homo sapiens, UniProt Q9NPD5) for entry Cn1c(=O)c2[nH]cnc2n(C)c1=O.O , please look it up.
2.5%

Each of the following entries comes with a recorded value; kindly state INH for each.
1. O=C(O)c1cc(/N=N/c2ccc(S(=O)(=O)Nc3ccccn3)cc2)ccc1O
2. CN1CCC[C@@H]1Cc1c[nH]c2ccc(CCS(=O)(=O)c3ccccc3)cc12
3. O=C1C[C@@H](c2ccc(O)cc2)Oc2cc(O)cc(O)c21
4. O=c1c(-c2ccc(O)cc2)coc2cc(O)cc(O)c12
5. COc1cc2nc(N3CCN(C(=O)c4ccco4)CC3)nc(N)c2cc1OC

1: 72.1%; 2: 2.8%; 3: -57.2%; 4: -5%; 5: 36.1%

Each of the following entries comes with a recorded value; kindly state INH for each.
1. CO[C@H]1/C=C/O[C@@]2(C)Oc3c(C)c(O)c4c(O)c(cc(O)c4c3C2=O)NC(=O)/C(C)=C\C=C\[C@H](C)[C@H](O)[C@@H](C)[C@@H](O)[C@@H](C)[C@H](OC(C)=O)[C@@H]1C
2. CN(C)C(=O)CCSC(SCCC(=O)O)c1cccc(/C=C/c2ccc3ccc(Cl)cc3n2)c1 (stereo not given)
3. Nc1ccc(C(=O)NCC(=O)O)cc1

1: 101.4%; 2: 80.7%; 3: 23.7%

Each of the following entries comes with a recorded value; kindly state INH for each.
1. CC[C@]1(O)C[C@H]2CN(CCc3c([nH]c4ccccc34)[C@@](C(=O)OC)(c3cc4c(cc3OC)N(C=O)[C@H]3[C@@](O)(C(=O)OC)[C@H](OC(C)=O)[C@]5(CC)C=CCN6CC[C@]43[C@@H]65)C2)C1
2. CC1(C)[C@@H](O[C@H]2O[C@H](C(=O)O)[C@@H](O)[C@H](O)[C@H]2O[C@@H]2O[C@H](C(=O)O)[C@@H](O)[C@H](O)[C@H]2O)CC[C@]2(C)[C@H]3C(=O)C=C4[C@@H]5C[C@@](C)(C(=O)O)CC[C@]5(C)CC[C@@]4(C)[C@]3(C)CC[C@@H]12

1. 59.8%
2. 90.9%

Each of the following entries comes with a recorded value; kindly state INH for each.
1. CC1=C(C(=O)O)N2C(=O)[C@@H](NC(=O)[C@H](N)c3ccc(O)cc3)[C@H]2SC1
2. CN(C)CCCN1c2ccccc2Sc2ccc(Cl)cc21
3. CCCc1nc2c(C)cc(-c3nc4ccccc4n3C)cc2n1Cc1ccc(-c2ccccc2C(=O)O)cc1
4. Cc1ccc(N(CC(=O)O)CC(=O)O)c(OCCOc2cc(-c3c4cc(Cl)c(=O)cc-4oc4cc(O)c(Cl)cc34)ccc2N(CC(=O)O)CC(=O)O)c1
5. CC/C(=C(/CC)c1ccc(O)cc1)c1ccc(O)cc1
6. C[C@]12CC[C@@H]3c4ccc(OS(=O)(=O)O)cc4CC[C@H]3[C@@H]1CCC2=O
7. CCCCC1C(=O)N(c2ccccc2)N(c2ccccc2)C1=O

["21%", "22.8%", "91.5%", "88.5%", "31.1%", "10.1%", "17%"]

Each of the following entries comes with a recorded value; kindly state INH for each.
1. CCc1oc2ccccc2c1C(=O)c1cc(Br)c(O)c(Br)c1
2. C[C@H](CS)C(=O)N1CCC[C@H]1C(=O)O
3. COc1ccc(Cl)cc1C(=O)NCCc1ccc(S(=O)(=O)NC(=O)NC2CCCCC2)cc1 [GLYBURIDE]
4. CSc1ccc2c(c1)N(CCC1CCCCN1C)c1ccccc1S2 (stereo not given)
5. CC(C)(C)NC(=O)[C@@H]1C[C@@H]2CCCC[C@@H]2CN1C[C@@H](O)[C@H](Cc1ccccc1)NC(=O)[C@H](CC(N)=O)NC(=O)c1ccc2ccccc2n1

1: 19.5%; 2: 4%; 3: 49.3%; 4: 25.2%; 5: 6.6%
